Target: human mTOR (Homo sapiens (Human))
Sequence (P42345 1360-2549): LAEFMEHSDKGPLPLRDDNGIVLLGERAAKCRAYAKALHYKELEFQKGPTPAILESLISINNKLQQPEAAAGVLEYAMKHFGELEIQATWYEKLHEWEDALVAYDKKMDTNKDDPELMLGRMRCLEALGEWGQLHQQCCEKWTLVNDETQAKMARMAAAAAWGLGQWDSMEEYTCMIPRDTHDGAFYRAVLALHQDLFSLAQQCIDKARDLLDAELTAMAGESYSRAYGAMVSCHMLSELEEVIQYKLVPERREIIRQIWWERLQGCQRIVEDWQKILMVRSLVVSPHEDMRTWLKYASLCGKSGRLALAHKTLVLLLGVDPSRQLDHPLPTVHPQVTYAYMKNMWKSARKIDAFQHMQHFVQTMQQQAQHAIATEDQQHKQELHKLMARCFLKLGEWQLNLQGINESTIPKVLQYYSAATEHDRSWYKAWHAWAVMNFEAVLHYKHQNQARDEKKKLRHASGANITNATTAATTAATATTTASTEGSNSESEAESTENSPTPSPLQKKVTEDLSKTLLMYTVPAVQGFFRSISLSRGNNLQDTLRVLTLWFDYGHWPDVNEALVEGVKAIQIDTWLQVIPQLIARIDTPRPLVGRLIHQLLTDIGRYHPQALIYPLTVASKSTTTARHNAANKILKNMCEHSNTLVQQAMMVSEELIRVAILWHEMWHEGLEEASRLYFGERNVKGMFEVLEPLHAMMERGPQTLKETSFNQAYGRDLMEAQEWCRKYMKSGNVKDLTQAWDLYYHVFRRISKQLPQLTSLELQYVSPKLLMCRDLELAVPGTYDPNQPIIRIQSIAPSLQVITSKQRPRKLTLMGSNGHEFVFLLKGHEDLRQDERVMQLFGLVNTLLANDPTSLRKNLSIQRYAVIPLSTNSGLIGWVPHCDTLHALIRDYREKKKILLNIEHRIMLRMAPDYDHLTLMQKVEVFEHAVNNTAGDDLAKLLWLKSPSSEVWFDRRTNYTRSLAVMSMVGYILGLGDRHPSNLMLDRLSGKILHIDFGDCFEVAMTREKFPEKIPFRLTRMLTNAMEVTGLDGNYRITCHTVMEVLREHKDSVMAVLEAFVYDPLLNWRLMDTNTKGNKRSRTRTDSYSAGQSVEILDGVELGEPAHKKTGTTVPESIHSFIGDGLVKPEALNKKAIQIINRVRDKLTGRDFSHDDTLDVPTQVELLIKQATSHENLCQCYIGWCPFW
Assay: mTOR kinase assay (TR-FRET, for comparative purposes)
Format: biochemical
Conditions: read-out: mTOR % inhibition @ 1 μM, 1 μM test compound, 40 μM ATP, mean values
Method: mTOR inhibitory activity of the compounds of the present invention was quantified employing the TR-FRET based mTOR assay as described in the following paragraphs: Test compounds were dissolved in DMSO to generate 10 mM stock solutions. […] For this, the fluorescence emissions at 495 nm and 520 nm after excitation at 340 nm was measured in an Envision 2104 multilabel reader (Perkin-Elmer).
Where a name gives a salt, the structure may show the parent alone.
assay.endpoint: inhibition at 1 µM (%)
Could you give me the number in %? Just the number is fine.

COc1cc(C)cc2cc(-c3cc(C(=O)N4CCNC(C)(C)C4)n4ncnc(N)c34)sc12 [Example 103] : 9.2
COc1cc(C)cc2cc(-c3cc(CN4CC5CNCC5C4)n4ncnc(N)c34)sc12 (centres unmarked) [Example 23] : 28.1
COc1cc(C)cc2cc(-c3cc(CN4CCNC(C(N)=O)C4)n4ncnc(N)c34)sc12 (racemic) [Example 7, trihydrochloride] : 43.7
COc1cc(C)cc2cc(-c3cc(CN[C@@H]4CCNC4=O)n4ncnc(N)c34)sc12 [Example 6, dihydrochloride] : 33.5
COc1cc(C)cc2cc(-c3cc(CN4CC[C@H](N)C4)n4ncnc(N)c34)sc12 [Example 9] : 24.2

(Q) State the recorded inhibition at 1 µM for this entry: COc1cc(C)cc2cc(-c3cc(CN4CCNC(=O)C4C)n4ncnc(N)c34)sc12 (centres unmarked) [Example 39]
(A) 21.4

(Q) State the recorded inhibition at 1 µM for this entry: COCCN(C)Cc1cc(-c2cc3cc(C)cc(OC)c3s2)c2c(N)ncnn12 [Example 76]
(A) 29.9

(Q) State the recorded inhibition at 1 µM for this entry: CCCc1nccn1Cc1cc(-c2cc3cc(C)cc(OC)c3s2)c2c(N)ncnn12 [Example 121]
(A) 26.8
